test: chemical genetic growth profiling, strain panel (AID 1159580);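 also: tested at 20 µM; growth read once vehicle control cultures reached saturation at 30 °C; 1 = growth at the plate median or of vehicle wells; lower values mean less growth of the strain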; conditions: S. cerevisiae deletion strains, growth OD, locus YBR231C, strain swc5
About 2,000 (36%) of roughly 5,500 compounds were called active. Roughly 18% stayed inconclusive and do not appear here. Rule as the data show it: active = normalized growth mostly below about 0.91 (no sharp cut-off); inconclusive = no clear call, values can overlap the other calls; inactive = mostly above about 0.92. Some of the results follow.
Give one outcome, nothing more. List: true for active, false for inactive

Query: Short answer needed: outcome of this test for COc1ccc(C(=O)O)cc1OC ?
Result: false

Query: Returns: the outcome recorded for O=C(O)CCCc1ccc(N(CCCl)CCCl)cc1 in this assay.
Result: false

Query: Assay result, entry CN1C2C[C@H](OC(=O)[C@H](CO)c3ccccc3)C[C@H]1[C@@H](O)C2 — outcome?
Result: false

Query: Answer briefly: the call reported for C=CCc1ccc(OC)cc1 in this assay.
Result: false

Query: What call does the record list for CN(C)CCN(Cc1cccs1)c1ccccn1 ?
Result: false

Query: // return assay outcome for CN(C)CCCC1(c2ccc(F)cc2)OCc2cc(C#N)ccc21 (stereo not drawn)
Result: false

Query: Call for entry CCCCC/C=C/CCC(=O)N[C@H]1[C@H](Oc2c3cc4cc2Oc2ccc(cc2Cl)[C@@H](O[C@@H]2O[C@H](CO)[C@@H](O)[C@H](O)[C@H]2NC(C)=O)[C@@H]2NC(=O)[C@H](NC(=O)[C@@H]4NC(=O)[C@H]4NC(=O)C(Cc5ccc(c(Cl)c5)O3)NC(=O)[C@H](N)c3ccc(O)c(c3)Oc3cc(O)cc4c3)c3ccc(O)c(c3)-c3c(OC4O[C@H](CO)[C@@H](O)[C@H](O)[C@@H]4O)cc(O)cc3[C@@H](C(=O)O)NC2=O)O[C@H](CO)[C@@H](O)[C@@H]1O (stereo partly drawn) :
Result: false

Query: Identify the outcome logged in this assay for the compound shown: N[C@@H](Cc1ccc(N(CCCl)CCCl)cc1)C(=O)O
Result: false

Others:
Query: Recorded test call requested for O=C(c1ccc(OCCN2CCCCC2)cc1)c1c(-c2ccc(O)cc2)sc2cc(O)ccc12
Result: false

Query: Answer briefly: the call reported for O=C(NC(=O)c1ccccc1Cl)Nc1ccc(OC(F)(F)F)cc1 in this assay.
Result: false

Query: Hello, I am checking results. What call was entered for Oc1cc(O)c2c(c1)O[C@H](c1ccc(O)c(O)c1)[C@@H](O)C2 ?
Result: false

Query: Per the assay record, what outcome was assigned to COC(=O)/C=C/C(C)=C/C=C/C(C)=C/C=C/C=C(C)/C=C/C=C(C)/C=C/C(=O)O ?
Result: false

Query: Assay result, entry N=c1ccn2c(n1)OC1C(O)C(CO)OC12 (stereo not drawn) — outcome?
Result: false

Query: What did this assay record as the result for C=CCCCCCCCCCCCc1ccco1 ?
Result: true

Query: Could you kindly confirm the outcome this assay logged for Cc1ccc(S(=O)(=O)NC(=O)NN2CCCCCC2)cc1 ?
Result: false

Query: Would you mind telling me which call this test gave Oc1ccc2c(c1)O[C@H](c1ccc(O)c(O)c1)[C@@H](O)C2 ?
Result: false

* * *

assay: chemical genetic growth profiling, strain panel (AID 1159580);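 also: tested at 20 µM; growth read once vehicle control cultures reached saturation at 30 °C; 1 = growth at the plate median or of vehicle wells; lower values mean less growth of the strain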; details: S. cerevisiae deletion strains, growth OD, locus YAR019C, strain CDC15
Hit rate of the full screen: of about 5,500 compounds, about 2,000 (36%) were called active. Roughly 18% stayed inconclusive and do not appear here. Cut-off read from the data, not from the text of the source: active = normalized growth mostly below about 0.91 (no sharp cut-off); inconclusive = no clear call, values can overlap the other calls; inactive = mostly above about 0.92. The list shows a part of the results.
Pick from 1 (yes) = active, 0 (no) = inactive when you respond.

Query: Hey, what did the test say about Cc1cc(C(=O)NNS(=O)(=O)c2ccc(F)c(Cl)c2)nn1-c1c(Cl)cc(Cl)cc1Cl ?
Result: 0 (no)

Query: Just curious, what result did N/C(Cn1ccc(C(F)(F)F)n1)=N/OS(=O)(=O)c1cccc(Cl)c1Cl get here?
Result: 0 (no)

Query: I'd appreciate the recorded outcome for O=[N+]([O-])c1ccc(-c2noc(-c3ccno3)n2)o1 from this test.
Result: 1 (yes)

Query: For this compound, state the assay outcome: CC(C)(C)c1ccc(C(=N)SC(C(=O)C(F)(F)F)c2ccccc2)cc1 (stereo unspecified)
Result: 0 (no)

Query: Record request — test call for COc1cc(Cl)ccc1N/N=C(/C#N)C(N)=O
Result: 1 (yes)

Continue with the next compound.
Query: Hi, sorry to bother you, what did the test record for CCCN(CCC)C(=S)NC(=O)c1cccc([N+](=O)[O-])c1 ?
Result: 0 (no)

* * *

assay: chemical genetic growth profiling, strain panel (AID 1159580);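 also: tested at 20 µM; growth read once vehicle control cultures reached saturation at 30 °C; 1 = growth at the plate median or of vehicle wells; lower values mean less growth of the strain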; conditions: S. cerevisiae deletion strains, growth OD, locus YNL067W, strain RPL9B, hits give low values
Screen size: about 5,500 compounds; about 2,000 (36%) were called active. About 18% were inconclusive and are not listed. This is one part of the list.
PROPERTY: normalized growth
Provide a numeric answer; units are not to be included.

Query: Provide one value: measured normalized growth of CNC(=O)O/N=C(\C)SC
Result: 1.01

Query: Supply recorded normalized growth for CN(C)CCN(Cc1ccccc1)c1ccccn1 here.
Result: 0.985

Query: Please supply the value of reported normalized growth for the item Cc1[nH]c2ccccc2c1CN(C)C
Result: 1.02

---
Query: Name the recorded normalized growth of the item c1ccc2c(c1)CCCC2C1=NCCN1 (configuration not stated) in your answer.
Result: 1

Query: Name the recorded normalized growth of the item O=C(O)/C=C/c1ccc(O)c(O)c1 in your answer.
Result: 0.994

Query: State, in one line, measured normalized growth of OCC(O)CN1CCN(c2ccccc2)CC1 (configuration not stated)
Result: 0.988

Query: Give the reported value of normalized growth for this record: NS(=O)(=O)c1cc2c(cc1Cl)NC=NS2(=O)=O
Result: 1.01

* * *

test: chemical genetic growth profiling, strain panel (AID 1159580);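 also: tested at 20 µM; growth read once vehicle control cultures reached saturation at 30 °C; 1 = growth at the plate median or of vehicle wells; lower values mean less growth of the strain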; conditions: S. cerevisiae deletion strains, growth OD, locus YLR102C, strain apc9, hits give low values
About 2,000 (36%) of roughly 5,500 compounds were called active. Another 18% or so got no clear call; they are omitted. Some of the results follow.
PROPERTY: normalized growth
Output: the number by itself.

Query: Quickly give me recorded normalized growth for COc1cc2c(cc1OC)C(=O)c1ccc(OC)c(OC)c1OCC(=O)C2
Result: 1.01

Query: # return recorded normalized growth for input COc1ccc(C(c2ccc(OC)cc2)C(Cl)(Cl)Cl)cc1
Result: 0.99

Query: Give normalized growth for COC(=O)/C=C/C(C)=C/C=C/C(C)=C/C=C/C=C(C)/C=C/C=C(C)/C=C/C(=O)O
Result: 0.988

Query: Give the measured normalized growth for CCCCCCCCC(=O)NCc1ccc(O)c(OC)c1
Result: 0.987

***
Query: For the compound Oc1cc(O)c2c(c1)O[C@H](c1ccc(O)c(O)c1)[C@@H](O)C2 , give its measured normalized growth value.
Result: 0.985

Query: In one line, give reported normalized growth of the entry Oc1cc(O)c2c(c1)O[C@H](c1cc(O)c(O)c(O)c1)[C@H](O)C2 .
Result: 0.976

Query: Recall and state the measured normalized growth for Cn1c(=O)c2c(ncn2CC(O)CO)n(C)c1=O (stereo not given) .
Result: 0.975

Query: Respond only with normalized growth recorded for COc1ccc([C@H]2Oc3c(I)c(OC)cc(OC)c3C[C@@H]2O)cc1OC
Result: 1.01

Query: Please give measured normalized growth of the following entry: O=C(O)/C=C/c1ccc(O)c(O)c1
Result: 1.01

Query: Tell us which normalized growth value is on record for Clc1ccc(C(OCCN2CCCCC2)c2ccccc2)cc1 (stereo not given)
Result: 0.999

Query: Please indicate normalized growth recorded for Oc1cc(O)c2c(c1)O[C@H](c1ccc(O)c(O)c1)[C@H](O)C2
Result: 0.982

Query: Return normalized growth for the following compound: COc1ccc2c(c1)OC/C(=C/c1ccc(OC)c(OC)c1)C2=O
Result: 0.974

Query: Identify measured normalized growth corresponding to Cc1[nH]c2ccccc2c1CN(C)C
Result: 1

Query: Return normalized growth (reported value) for this compound: CN1CCC(OC(c2ccccc2)c2ccccc2)CC1
Result: 0.999

Query: Please supply the value of reported normalized growth for the item COc1cc([C@@H]2c3cc4c(cc3C(OC3O[C@@H]5COC(C)O[C@H]5[C@H](O)[C@H]3O)C3COC(=O)[C@@H]32)OCO4)cc(OC)c1O (stereo not given in full)
Result: 0.999

Query: Please supply the value of reported normalized growth for the item COc1ccc(C(=O)CC(=O)O)c2c1C=CC(C)(C)O2
Result: 0.992

Query: Specify measured normalized growth for COC(=O)[C@@H]1OC(=O)C2OC23[C@@]1(C)CCC1[C@]2(C)C(C[C@H](O)[C@]13C)C(C)(C)[C@H](OC(C)=O)C[C@@H]2OC(C)=O (stereo not given in full) .
Result: 0.997

Query: Using known records, supply normalized growth for CN1CC(CO)=C[C@@H]2c3cccc4[nH]cc(c34)C[C@H]21
Result: 1

Query: Please report the measured normalized growth for CC(=O)O[C@H]1C[C@@H](OC(C)=O)C(C)(C)C2CC(=O)[C@]3(C)C(CC[C@@]4(C)[C@H](C(=O)O)OC(=O)C5OC543)[C@]21C (stereo not given in full)
Result: 1

Query: Could you please provide reported normalized growth for CCCCCCCCCCC[C@@H](C[C@H]1OC(=O)[C@H]1CCCCCC)OC(=O)[C@@H](CC(C)C)NC=O ? Thanks!
Result: 1.01
